assayReadout: melting point

Please report the recorded melting point for COc1cc2c(c3c1OC(C)(C)C3)C(c1ccccc1)=NC(CO)C2 (configuration not stated) .
156 to 158 °C

Likewise for `N#Cc1ccc(NC(=O)c2cccc(OCc3ccc(OC(F)(F)F)cc3)c2)cc1` ?
138 to 139 °C

Likewise for `O=[N+]([O-])c1ccc(Oc2ccc(C3(c4ccc(Oc5ccc([N+](=O)[O-])c(O)c5)cc4)C4CC5CC(C4)CC3C5)cc2)cc1O` ?
248 to 250 °C

Likewise for `C[C@@H]1Cc2cc3c(cc2C(c2ccc([N+](=O)[O-])c(Cl)c2)=NN1C(=S)NN)OCO3` ?
126 to 127 °C

Likewise for `O=C(c1ccc2[nH]ccc2c1)N1CCN(CCc2ccccc2)CC1` ?
105 to 108 °C

Likewise for CCC#CC(C)(C)NC(=O)C(Br)CC (configuration not stated) ?
53 to 55 °C

Likewise for `O=[N+]([O-])c1cc2ccccc2c2nccnc12` ?
163 to 165 °C

Likewise for `COc1ccc(NC(=O)c2c(C)c([N+](=O)[O-])cc3nc(OC)c(OC)nc23)cc1` ?
206 to 208 °C

Likewise for `CS(=O)(=O)Nc1cc2occ(-c3cscn3)c(=O)c2cc1Oc1ccccc1` ?
> 250 °C

Likewise for CS(=O)(=O)c1cc(C(O)C2CCCCC2)c2ccccc2n1 (configuration not stated) ?
83 °C

Likewise for COc1ccc(CCCC(O)COc2ccc(OCc3ncc[nH]3)cc2)cc1OC (configuration not stated) ?
129 to 130 °C

Likewise for `COC(=O)CCC(=O)c1ccc(F)cc1` ?
48 to 50 °C

Likewise for CC(CCCl)C(=O)Nc1scc(C(C)(C)C)c1C#N (configuration not stated) ?
115 to 116 °C

Likewise for CC(C)c1ccc2c(c1)C(c1ccc(Cl)c(Cl)c1)Cc1cnc(N)nc1-2 (configuration not stated) ?
174 to 176 °C

Likewise for `COc1cccc2c1CCNC2=S` ?
44 to 46 °C

Likewise for `CCCCc1nc(SCC)c2ccccc2c1Cc1ccc(C(=O)O)cc1` ?
150 °C

Likewise for `C=C(C)COc1ccc(C(=O)C=Cc2cccs2)c(O)c1` ?
119 to 120 °C

Likewise for CCC(O)c1c(C)c(NC(=O)CC(C)(C)C)c(C)c2c1OCC2c1ccc(C(C)C)cc1 (configuration not stated) ?
165 to 167 °C

Likewise for CCC1CCC(=O)C=C1c1ccc(OCC(=O)O)c(Cl)c1Cl (configuration not stated) ?
164 to 165 °C

Likewise for `O=[N+]([O-])c1ccc(CCc2nnco2)cc1` ?
93 to 94 °C

Likewise for `NC(=O)c1cc(O)ccc1Cl` ?
159 to 161 °C

Likewise for `CCOC(=O)c1cc(C(=O)NC)nc(C(=O)NC)c1NC` ?
169 to 170 °C

Likewise for `COc1ccccc1NC(=O)Nc1ccc(CC(=O)OC(C)(C)C)cc1OC` ?
132 to 134 °C

Likewise for `Oc1cccc(-c2noc3ncccc23)c1` ?
175 to 178 °C

Likewise for `CC1(C)CCc2[nH]cc(C(=O)Nc3ccc4c(c3)OCO4)c2C1=O` ?
251 to 252 °C

Likewise for `CNc1nc(Cc2c(Cl)cccc2Cl)nc(Nc2ccc(C#N)cc2)n1` ?
229 to 230 °C

Likewise for `N#CC1=CC(CF)(CF)Oc2ccc(Br)cc21` ?
105 to 107 °C

Likewise for O=C1C2CCCC2=Nc2ccccc2N1Cc1cccc(OCc2ccccc2)c1 (configuration not stated) ?
120 to 122 °C

Likewise for `COC(=O)c1c(S(C)(=O)=O)ccc(C(=O)C2C(=O)CCCC2=O)c1Cl` ?
160 to 162 °C

Likewise for `CN(C)c1ccc(-c2n[nH]c(=O)c3cc(N(C)C)ccc23)cc1` ?
230 to 233 °C

Likewise for `Nc1nc2c([nH]c(=O)n2Cc2cccs2)c(=O)[nH]1` ?
> 300 °C

Likewise for `CC1(C)C=Cc2c(ccc3c2C(=O)C(Br)=C(O)C3=O)O1` ?
202 to 205 °C

Likewise for `COc1cc(C(=O)Nc2c(C)cc3cn[nH]c3c2C(=O)NC2(C3CC3)CC2)n(-c2ncccc2Cl)n1` ?
150 to 154 °C

Likewise for CCC(COC)(OC)c1cncc(O)c1 (configuration not stated) ?
87 to 88 °C

Likewise for `O=C(CBr)c1cc2ccccc2[nH]1` ?
125 to 130 °C

Likewise for `O=C(O)CCC(=NO)c1ccc(-c2ccc(Cl)s2)cc1` ?
172 to 174 °C

Likewise for `COc1cccc(CNC(=O)c2nc3ccc(SC)cc3c(=O)[nH]2)c1` ?
168 to 170 °C

Likewise for `Cc1cccc(-c2nc(N)sc2-c2ccc3ncccc3n2)n1` ?
188 °C

Likewise for `CCCCc1nc2c(N)nc3cc(/C=C/c4ccccc4)ccc3c2n1CC(C)C` ?
215 to 216 °C

Likewise for O=C(CCC(O)c1cccs1)Nc1cccc2cc(-c3nccs3)[nH]c12 (configuration not stated) ?
155 to 157 °C

Likewise for `CS(=O)(=O)OCCc1ccc(NC(=O)OCc2ccccc2)cc1CCOS(C)(=O)=O` ?
58 to 60 °C

Likewise for `Cc1nnc2n1-c1ccc(C#CCn3ccc4ccccc43)cc1C(c1ccccc1F)=NC2` ?
167 to 169 °C
